The reported measurements were obtained from paper PMC10593859.

# Test target: Ad26 viral particles
# Test method notes: SPR; pre-vaccination human serum (1:5) flowed over Ad26 first
Property name: Kd (nM)

[[record]]
binder = "recombinant human platelet factor 4 (PF4) (natural protein) EAEEDGDLQCLCVKTTSQVRPRHITSLEVIKAGPHCPTAQLIATLKNGRKICLDLQAPLYKKIIKKLLES"
property_name = "Kd"
value_measured = 122

